Assay: Microsomal stability, mouse microsomes
Format: in vitro ADME
Conditions: liver microsomes; 0.5 mg/mL mouse microsomes, 5 μM, up to 45 min; read-out: Microsomal stability, t1/2 (min), mouse

>  <Compound>
NC(=O)c1cc(Cn2cc(-c3c(-c4ccc(Cl)cc4)nc4ccc(F)cn34)nn2)ccc1Cl [Compound 10]

>  <half-life at 5 μM>
> 45 min

$$$$
>  <Compound>
NC(=O)c1cc(Cn2cc(-c3c(-c4ccc(Cl)cc4)nc4c(F)cccn34)nn2)ccc1Cl [Compound 8]

>  <half-life at 5 μM>
8 min

$$$$

----------
Biological target: human CAR LBD (Homo sapiens, UniProt Q14994)
Construct: constructs encoding helices 3–12 and helix 1 of human CAR LBD; expressed in transfected cells; host or cells: HepG2
Sequence (Q14994 103-150 limits assumed): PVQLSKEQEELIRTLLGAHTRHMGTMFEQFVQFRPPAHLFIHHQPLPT
Sequence (Q14994 151-348 isoform Q14994-2 limits assumed): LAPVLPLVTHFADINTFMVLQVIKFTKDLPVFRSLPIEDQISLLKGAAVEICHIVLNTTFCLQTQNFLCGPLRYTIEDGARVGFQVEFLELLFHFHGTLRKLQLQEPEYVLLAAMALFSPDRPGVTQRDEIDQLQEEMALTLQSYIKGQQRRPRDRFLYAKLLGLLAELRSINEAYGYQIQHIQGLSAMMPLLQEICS
Test: CAR LBD assembly assay (CAR AA)
Type: cell-based
Details: na = no activity; tox = cytotoxicity in HepG2 cells
Experimental Endpoint: EC50

>  <Smiles Input>
NC(=O)c1cc(Cn2cc(-c3c(-c4ccc(Cl)cc4)nc4ccc(F)cn34)nn2)ccc1Cl

>  <System>
human CAR LBD (Homo sapiens, UniProt Q14994)

>  <Reported Result>
> 10 µM

$$$$
>  <Smiles Input>
NC(=O)c1cc(Cn2cc(-c3c(-c4ccc(Cl)cc4)nc4c(F)cc(F)cn34)nn2)ccc1Cl

>  <System>
human CAR LBD (Homo sapiens, UniProt Q14994)

>  <Reported Result>
> 10 µM

$$$$
>  <Smiles Input>
NC(=O)c1cc(Cn2cc(-c3c(-c4ccc(C5CC5)cc4)nc4ccccn34)nn2)ccc1Cl

>  <System>
human CAR LBD (Homo sapiens, UniProt Q14994)

>  <Reported Result>
> 20 µM

$$$$

These data points were gathered from paper PMC12305494.
